Target: T1, recombinant extracellular domain protein of human DLL3 (h.DLL3-ECD-His) (human, UniProt Q9NYJ7 27-492)
T1 construct: extracellular domain; Commercial protein; also called human DLL3 antigen; not shown: His tag
T1 sequence (looked up): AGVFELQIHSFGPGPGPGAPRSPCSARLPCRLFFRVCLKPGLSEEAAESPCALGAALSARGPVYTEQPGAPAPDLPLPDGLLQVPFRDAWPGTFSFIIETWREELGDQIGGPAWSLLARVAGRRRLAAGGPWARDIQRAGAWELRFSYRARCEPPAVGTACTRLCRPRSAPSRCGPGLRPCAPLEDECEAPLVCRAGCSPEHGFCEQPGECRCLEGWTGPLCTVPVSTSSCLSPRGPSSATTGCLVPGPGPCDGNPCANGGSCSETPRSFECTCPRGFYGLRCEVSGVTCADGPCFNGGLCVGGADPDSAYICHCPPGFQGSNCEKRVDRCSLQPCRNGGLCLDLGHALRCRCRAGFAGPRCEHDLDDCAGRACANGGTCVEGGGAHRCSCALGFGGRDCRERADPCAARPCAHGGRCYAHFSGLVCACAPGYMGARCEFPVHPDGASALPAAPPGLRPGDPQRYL
Experiment: BLI (ForteBio), antibody on ProA sensor, hDLL3-ECD-His in solution
kon values by entry
Could you give me the number in M⁻¹ s⁻¹? Just the number is fine.

Some entries whose results are on file:
Binder	kon, M⁻¹ s⁻¹
55C11E4-Hz1 (antibody, human IgG1, kappa, V domains shown, Humanized IgG1/kappa) VH: EVQLVQSGAEVKKPGASVKVSCKASGYTFTDYYMNWVRQAPGQRLEWMGVINPYNGGTNYSQKFQGRVTLTVDKSASTAYMELSSLRSEDTAVYYCARDSNYVGLLDYWGQGTLVTVSS VL: DIVLTQSPATLSLSPGERATLSCRASQSISNNLHWYQQKPGQAPRLLIKYASQSISGIPARFSGSGSGPDFTLTISSLEPEDFAVYFCQQSNSWPYTFGQGTKVEIKR	124000
6F11C10-Hz1 antibody (antibody, human IgG1, kappa, V domains shown, Humanized IgG1/kappa) VH: EVQLVQSGAEVKKPGASVKVSCKASGFTFTDYYMHWVRQAPGQSLEWMGLVYPYNGDISYAQKFQGRVTLTVDTSISTAYMELSRLRSDDTAVYYCARQGNYVNNAIDYWGQGTLVTVSS VL: DIQMTQSPSSLSASVGDRVTITCKASQNVGNIIAWYQQKPGKSPKALIYLASYRYSGVPSRFSGSGSGTDFTLTISSLQPEDVATYFCQQYSDSPYTFGQGTKVEIKR	175000

What measured kon goes with 87F7F10-Hz (antibody, human IgG1, kappa, V domains shown, Humanized; also called 87F7F10-hz1) VH: QVQLQESGPGLVKPSETLSLTCTVSGYSITSDFYWNWIRQPPGKGLEWIGYITYDGSTNYNPSLKSRVTISRDTSKNQFSLKLSSVTAADTAVYYCVYGDFNRHAMDYWGQGTLVTVSS VL: DIVMTQSPDSLAVSLGERATINCRSSQSLFNSRTRKNYLAWYQQKPGQPPKVLIYWASTRESGVPDRFSGSGSGTDFTLTISSLQAEDVAVYYCEQSFYLFTFGQGTKVEIKR ?
25400

What would you report for 10F2F3-Hz antibody (antibody, human IgG1, kappa, V domains shown, Humanized) VH: QVQLVESGAEVKKPGSSVKVSCKASGYAFSSHWVNWVRQAPGQGLEWMGQIYPGNGDTNYAQKFQGRVTLTADKSTSTAYMELSSLTSEDTAVYFCARWFAYWGQGTLVTVSS VL: DIQMTQSPSSLSASVGDRVTITCKSSQSLLDGGNQKNYLAWYQQKPGKPPKLLVYFASIRESGVPSRFSGSGSGTDFTLTISSLQPEDFATYYCQQHYNTPWTFGQGTKVEIKR ?
74200

What would you report for 59B10D3-Hz antibody (antibody, human IgG1, kappa, V domains shown, Humanized; also called 59B10D3-hz1) VH: EVQLVESGGGLVQPGGSLRLSCAASGFTFSDAWMDWVRQAPGKGLEWVAEIRNKANNHATYYVDSVKGRFTISRDDAKNSVYLQMNSLRAEDTAVYYCTRNNYGSTWTYYAMDYWGQGTLVTVSS VL: DIQMTQSPSSLSASVGDRVTITCRASQDISNYLNWYQQKPGKAVKLLIYYTSRLHSGVPSRFSGSGSGTDYTLTISSLQPEDFATYYCQQGYTLPLTFGQGTKVEIKR ?
122000
